Target: Phosphatidylinositol 4-phosphate 3-kinase C2 domain-containing subunit beta (Homo sapiens, UniProt O00750)
Sequence (O00750 whole entry, the tested form may be a part): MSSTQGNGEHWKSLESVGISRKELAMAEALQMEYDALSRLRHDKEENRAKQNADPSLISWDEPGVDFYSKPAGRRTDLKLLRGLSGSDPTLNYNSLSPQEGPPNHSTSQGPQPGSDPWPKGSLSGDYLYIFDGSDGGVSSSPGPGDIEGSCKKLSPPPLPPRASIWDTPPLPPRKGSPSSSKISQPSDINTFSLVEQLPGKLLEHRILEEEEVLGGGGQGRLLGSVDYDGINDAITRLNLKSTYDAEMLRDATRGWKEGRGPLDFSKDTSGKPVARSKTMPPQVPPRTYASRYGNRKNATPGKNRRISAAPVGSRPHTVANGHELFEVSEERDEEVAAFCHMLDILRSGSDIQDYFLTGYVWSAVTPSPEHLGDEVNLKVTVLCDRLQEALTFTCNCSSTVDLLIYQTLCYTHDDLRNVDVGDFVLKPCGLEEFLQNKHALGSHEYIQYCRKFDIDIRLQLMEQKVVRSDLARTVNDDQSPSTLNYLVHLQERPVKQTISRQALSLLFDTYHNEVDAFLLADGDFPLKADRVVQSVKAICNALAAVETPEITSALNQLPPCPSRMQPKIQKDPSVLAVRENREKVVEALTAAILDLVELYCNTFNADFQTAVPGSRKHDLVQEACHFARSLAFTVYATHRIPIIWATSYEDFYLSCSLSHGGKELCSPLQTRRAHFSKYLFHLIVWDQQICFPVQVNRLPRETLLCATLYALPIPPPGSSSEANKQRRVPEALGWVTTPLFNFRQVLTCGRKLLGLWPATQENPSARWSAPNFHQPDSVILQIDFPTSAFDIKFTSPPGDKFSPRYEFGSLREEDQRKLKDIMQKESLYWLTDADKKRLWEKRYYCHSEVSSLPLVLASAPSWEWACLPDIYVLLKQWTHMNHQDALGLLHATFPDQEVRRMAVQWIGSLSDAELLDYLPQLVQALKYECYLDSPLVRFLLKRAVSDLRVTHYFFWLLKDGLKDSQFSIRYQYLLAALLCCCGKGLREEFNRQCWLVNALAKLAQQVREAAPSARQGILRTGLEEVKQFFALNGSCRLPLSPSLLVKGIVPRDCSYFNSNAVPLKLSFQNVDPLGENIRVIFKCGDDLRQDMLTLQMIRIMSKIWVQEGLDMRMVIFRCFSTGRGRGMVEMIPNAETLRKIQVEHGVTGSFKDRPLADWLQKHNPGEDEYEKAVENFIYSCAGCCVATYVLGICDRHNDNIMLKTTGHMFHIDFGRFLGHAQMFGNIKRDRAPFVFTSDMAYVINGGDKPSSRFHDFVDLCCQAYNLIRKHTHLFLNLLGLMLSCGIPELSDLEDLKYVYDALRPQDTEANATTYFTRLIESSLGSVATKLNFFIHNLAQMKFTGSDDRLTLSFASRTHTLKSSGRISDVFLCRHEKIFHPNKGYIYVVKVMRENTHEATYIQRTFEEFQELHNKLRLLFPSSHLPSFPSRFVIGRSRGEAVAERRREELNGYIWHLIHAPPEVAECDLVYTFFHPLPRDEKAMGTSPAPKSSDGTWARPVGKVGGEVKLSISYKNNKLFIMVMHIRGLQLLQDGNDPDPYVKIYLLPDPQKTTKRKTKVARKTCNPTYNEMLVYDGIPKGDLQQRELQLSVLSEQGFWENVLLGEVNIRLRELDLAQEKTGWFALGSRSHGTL
Assay: Inhibition of human PI3KC2beta by non-radiometric ADP-Glo assay
pIC50: −log10 of the molar value.

compound: CC(=O)Nc1nc(C)c(-c2ccc(Cl)c(S(=O)(=O)NCCO)c2)s1
comparison_sign: =
pIC50: 6.85

compound: O=c1cc(N2CCOCC2)oc2c(-c3ccccc3)cccc12 [LY-294002]
comparison_sign: =
pIC50: 4.98

compound: CC(=O)Nc1ccc2nc(-c3cccc(NS(=O)(=O)c4ccccc4)c3)nc(N3CCOCC3)c2c1
comparison_sign: =
pIC50: 6.20

compound: O=C1NC(=S)S/C1=C/c1ccc2c(c1)N(Cc1ccc(F)c(Cl)c1)C(=O)CO2
comparison_sign: =
pIC50: 6.43

compound: CC[C@H](Nc1ncnc2[nH]cnc12)c1nc2cccc(F)c2c(=O)n1-c1ccccc1 [IDELALISIB]
comparison_sign: <
pIC50: 6.00

compound: FC(F)c1nc2ccccc2n1-c1nc(N2CCOCC2)nc(N2CCOCC2)n1 [ZSTK-474]
comparison_sign: =
pIC50: 6.74

compound: CC(=O)Nc1ccc2nc(-c3cccc(NS(=O)(=O)c4cccc5ccccc45)c3)nc(N3CCOCC3)c2c1
comparison_sign: =
pIC50: 6.28

compound: COc1ccc2c(c1OC)N=C(NC(=O)c1cccnc1)N1CCN=C21
comparison_sign: =
pIC50: 7.19

---

# pIC50 per record follows
Molecular target: Phosphatidylinositol 4-phosphate 3-kinase C2 domain-containing subunit alpha (Homo sapiens)
Sequence (O00443 whole entry, the tested form may be a part): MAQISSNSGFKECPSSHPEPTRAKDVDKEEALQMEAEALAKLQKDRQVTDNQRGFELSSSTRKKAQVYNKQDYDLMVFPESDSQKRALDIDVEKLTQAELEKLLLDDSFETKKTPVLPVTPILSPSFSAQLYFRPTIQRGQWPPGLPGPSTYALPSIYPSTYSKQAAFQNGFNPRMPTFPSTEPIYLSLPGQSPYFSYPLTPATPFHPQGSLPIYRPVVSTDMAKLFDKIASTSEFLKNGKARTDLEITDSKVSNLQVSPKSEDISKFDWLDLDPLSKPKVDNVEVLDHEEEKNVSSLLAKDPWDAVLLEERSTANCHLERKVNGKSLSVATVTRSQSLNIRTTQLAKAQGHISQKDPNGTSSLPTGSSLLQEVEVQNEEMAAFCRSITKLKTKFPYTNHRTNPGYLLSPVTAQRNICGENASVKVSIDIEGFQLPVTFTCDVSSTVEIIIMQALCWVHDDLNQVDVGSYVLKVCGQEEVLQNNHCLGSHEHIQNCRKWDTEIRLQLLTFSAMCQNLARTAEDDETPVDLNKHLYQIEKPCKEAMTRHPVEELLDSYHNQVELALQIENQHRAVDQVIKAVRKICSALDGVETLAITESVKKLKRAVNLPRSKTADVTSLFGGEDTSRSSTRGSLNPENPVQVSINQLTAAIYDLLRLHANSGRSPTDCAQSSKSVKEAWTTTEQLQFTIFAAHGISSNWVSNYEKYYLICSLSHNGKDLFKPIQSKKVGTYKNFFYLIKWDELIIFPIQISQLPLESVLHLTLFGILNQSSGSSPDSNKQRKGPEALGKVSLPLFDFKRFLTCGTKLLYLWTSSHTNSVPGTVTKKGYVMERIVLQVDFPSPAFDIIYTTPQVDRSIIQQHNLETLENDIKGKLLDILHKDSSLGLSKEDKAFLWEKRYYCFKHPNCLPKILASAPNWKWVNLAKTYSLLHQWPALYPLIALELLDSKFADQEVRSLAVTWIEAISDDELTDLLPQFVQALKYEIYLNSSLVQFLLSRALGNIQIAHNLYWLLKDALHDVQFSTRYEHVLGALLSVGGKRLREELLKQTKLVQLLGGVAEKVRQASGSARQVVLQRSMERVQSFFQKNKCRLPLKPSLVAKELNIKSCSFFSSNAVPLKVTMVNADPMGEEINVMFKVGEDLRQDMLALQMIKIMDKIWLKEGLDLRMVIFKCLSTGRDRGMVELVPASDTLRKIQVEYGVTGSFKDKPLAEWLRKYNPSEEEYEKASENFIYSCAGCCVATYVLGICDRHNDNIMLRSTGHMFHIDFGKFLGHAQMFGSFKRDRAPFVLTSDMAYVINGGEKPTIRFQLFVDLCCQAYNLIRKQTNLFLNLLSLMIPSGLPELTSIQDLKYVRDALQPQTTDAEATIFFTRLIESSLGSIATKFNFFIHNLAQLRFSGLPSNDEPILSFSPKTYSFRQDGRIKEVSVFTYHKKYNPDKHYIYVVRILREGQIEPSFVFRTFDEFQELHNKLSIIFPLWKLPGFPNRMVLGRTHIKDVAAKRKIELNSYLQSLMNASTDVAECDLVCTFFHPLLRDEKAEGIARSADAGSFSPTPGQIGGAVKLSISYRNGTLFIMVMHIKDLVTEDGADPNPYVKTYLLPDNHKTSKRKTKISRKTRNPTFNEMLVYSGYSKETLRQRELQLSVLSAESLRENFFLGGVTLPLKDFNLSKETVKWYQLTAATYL
Assay: Inhibition of human PI3KC2alpha by non-radiometric ADP-Glo assay
pIC50: −log10 of the molar value.

mol: FC(F)c1nc2ccccc2n1-c1nc(N2CCOCC2)nc(N2CCOCC2)n1
comparison_sign: <
pIC50: 4.00
//
mol: Oc1cccc(-c2nc(N3CCOCC3)c3oc4ncccc4c3n2)c1
comparison_sign: =
pIC50: 6.00
//
mol: CC(=O)Nc1nc(C)c(-c2ccc(Cl)c(S(=O)(=O)NCCO)c2)s1
comparison_sign: =
pIC50: 4.80
//
mol: O=C1NC(=S)S/C1=C/c1ccc2c(c1)N(Cc1ccc(F)c(Cl)c1)C(=O)CO2
comparison_sign: =
pIC50: 6.85
//
mol: O=c1cc(N2CCOCC2)oc2c(-c3ccccc3)cccc12
comparison_sign: =
pIC50: 4.57
//
mol: CS(=O)(=O)N1CCN(Cc2cc3nc(-c4cccc5[nH]ncc45)nc(N4CCOCC4)c3s2)CC1
comparison_sign: <
pIC50: 4.00
//
mol: COc1ccc2c(c1OC)N=C(NC(=O)c1cccnc1)N1CCN=C21
comparison_sign: =
pIC50: 7.33

---

pIC50: −log10 of the molar value.
The listing below reports pIC50 for compounds tested on Serine/threonine-protein kinase mTOR (Homo sapiens, UniProt P42345).

mol: FC(F)c1nc2ccccc2n1-c1nc(N2CCOCC2)nc(N2CCOCC2)n1
system_under_test: Serine/threonine-protein kinase mTOR (Homo sapiens, UniProt P42345)
pIC50: 6.43

mol: O=c1cc(N2CCOCC2)oc2c(-c3ccccc3)cccc12
system_under_test: Serine/threonine-protein kinase mTOR (Homo sapiens, UniProt P42345)
pIC50: 5.41
